Below is a list of entries, each paired with its recorded growth inhibition value.
# METHOD: NCI Yeast Anticancer Drug Screen. Data for the bub3 strain (AID 167)
# TEST SETTINGS: S. cerevisiae bub3 mutant strain, at 5.0 µM (retest, dose inferred, filed as 0.5), active compounds read high
The panel holds about 79,000 compounds, 15% with a hit somewhere; the sample as a whole holds those more often.
Your answer is read as %, so omit the unit and give the number.

Worked set:
COc1ccc(-c2ccccc2)cc1SCCC(=O)O = 0
CCCC/C=C1\CCC(CN2CCOCC2)C1=O (stereo not given) = 69
O=C(NN=C1CCCCC1)c1ccc([N+](=O)[O-])cc1 = 19

Next:
Quick check: growth inhibition of c1csc(CNCc2cccs2)c1 ? -1

---

# METHOD: NCI Yeast Anticancer Drug Screen. Data for the mec2-1 strain (AID 157)
# TEST SETTINGS: S. cerevisiae mec2-1 strain, at 5.0 µM (retest, dose inferred, filed as 0.5)
This is part of a sample that, as a whole, favours compounds with a hit. Of some 79,000 tested, about 15% had one in any assay. Active and inactive are the calls of the source. Rule as the data show it: active = growth inhibition above about 70%; inactive = the rest.
Mark one answer only. Choices: active, inactive

Here's what some known entries look like.
CCCCNCCC(SSSC(CCNCCCC)c1ccc(Cl)cc1)c1ccc(Cl)cc1 (configuration not stated) = inactive
COc1cc(OC)c(/C=C\c2ccnc3ccccc23)c(OC)c1 = inactive
N=C(N)c1ccc(/C=C/c2ccc(C(=N)N)cc2)cc1 = inactive

For this compound, state the assay outcome: Cc1cc(Cc2ccccc2Cl)ccc1O inactive

And then Cc1cc(Cl)c(O)c(-c2cc(-c3ccccc3O)c(C#N)c(N)n2)c1 , what is it? inactive

And then C/C(=N\NC(=S)N1CCN(C2CCCCC2)CC1)c1ccccn1 , what is it? inactive

And then CC(=O)O[C@@H]1c2c(c3c(=O)c4cccc(O)c4c(=O)c=3c2=[N+]=[N-])[C@H](OC(C)=O)[C@@H](OC(C)=O)[C@]1(C)O , what is it? active

---

# METHOD: NCI Yeast Anticancer Drug Screen. Data for the bub3 strain (AID 167)
# TEST SETTINGS: S. cerevisiae bub3 mutant strain, at 50.0 µM (retest, dose inferred, filed as 5.0), active compounds read high
# Protocol: Growth inhibition of yeast strains with defined genetic alterations is measured as a screen for potential anti-cancer activity. Selected strains with alterations in DNA damage repair or cell cycle control were exposed to compounds and growth inhibition was measured relative to vehicle treated controls. The strain used in this assay is bub3
About 79,000 compounds went through this panel and 15% of them were active in at least one assay; those are over-represented in the sample as a whole.
Below is a list of entries, each paired with its recorded growth inhibition value.
Your answer is read as %, so omit the unit and give the number.

Worked set:
CC(=O)Oc1ccc(C23CC4CC(CC(C4)C2)C3)cc1 = 108
O=C1c2ccccc2C(=O)c2c(OCCOCCO)cccc21 = 17
NC(N)=N/N=C(\c1ccc(F)cc1)c1ccc(C(F)(F)F)cc1 = 99
COc1ccc2[nH]cc(C(=O)O)c2c1 = 46
CCOC(=O)c1ccc(C(C)C)cc1 = 99
Cn1ncc2c(Nc3ccccc3)nc(Nc3ccccc3)nc21 = -17
CCN(CC)CCCCCCNc1cc(C)cc2cccnc12 = 76
CC(C)c1cccc(O)c1O = 45
CCOC(=O)CC1=NC(=Nc2ccc(Cl)c(Cl)c2)SC1 = 98
CCCCCCCOc1ccc(C=O)cc1OC = 38

Quick check: growth inhibition of COc1ccc(OC)c(NC(=O)CCCC(=O)CC(=O)c2cccnc2)c1 ? 62

And then C=CCOc1ccc(-c2ccccc2)cc1C(=O)NC , what is it? 8

And then CC1CCN(c2cc(-c3cc4ccccc4o3)oc(=O)c2C#N)CC1 , what is it? -1

And then CC(C)(C)[Si](C)(C)O/N=C\c1cccc(O[Si](C)(C)C(C)(C)C)c1 , what is it? 94

And then CCN(CC)Cc1ccc(Nc2cc(C)nc(/N=C(\N)Nc3ccc(Cl)c(Cl)c3)n2)cc1 , what is it? 98

And then O=[N+]([O-])c1cccc2nc3ccccc3c(NCCNCCO)c12 , what is it? 99

---

# METHOD: NCI Yeast Anticancer Drug Screen. Data for the cln2 rad14 strain (AID 165);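 further: 0% = growth equal to vehicle treated cultures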
# TEST SETTINGS: S. cerevisiae cln2 rad14 strain, at 50.0 µM (retest, dose inferred, filed as 5.0), active compounds read high
About 79,000 compounds went through this panel and 15% of them were active in at least one assay; those are over-represented in the sample as a whole.
Outcome label depends on growth inhibition relative to 70%: at/above gives TRUE, below gives FALSE.

Here's what some known entries look like.
COC12C(COC(N)=O)C3=C(C(=O)C(C)=C(N)C3=O)N1CC1C2N1C(=O)c1ccc(Cl)c(Cl)c1 (configuration not stated) = TRUE
CC(C)Nc1nc(NC(C)C)c2cnn(-c3ccccc3)c2n1 = FALSE
Nc1ncnc2c1c(-c1ccc(Cl)cc1)cn2-c1ccccc1 = FALSE
CCCCCCCCCCCC(C)N (configuration not stated) = FALSE

# ---- query compound ----
Reported growth inhibition reaches at least 70% for O=C(C[n+]1ccccc1Cl)c1ccc(Oc2ccc(C(=O)C[n+]3ccccc3Cl)cc2)cc1 ? FALSE

---

# METHOD: NCI Yeast Anticancer Drug Screen. Data for the mec2-1 strain (AID 157)
# TEST SETTINGS: S. cerevisiae mec2-1 strain, at 50.0 µM (retest, dose inferred, filed as 5.0)
The panel holds about 79,000 compounds, 15% with a hit somewhere; the sample as a whole holds those more often. Active and inactive are the calls of the source. Cut-off read from the data, not from the text of the source: active = growth inhibition above about 70%; inactive = the rest.
Mark one answer only. Choices: Y = active, N = inactive

COc1ccc(-c2c(C(=O)O)[nH]c3ccccc23)cc1 = Y
CCCCCCCCCCN(CCCCCCCCCC)CC(O)c1cc(-c2ccccc2)nc2ccccc12 (centres undefined) = N
CCOC(=O)C(CC(=O)O)=C(c1ccccc1)c1ccccc1 = N
Nc1nc2ccccc2cc1C(=O)O = N
CCOc1ccc2c(c1)[n+]([O-])c(-c1ccccc1)c(N)[n+]2[O-] = Y

# ---- query compound ----
For this compound, state the assay outcome: CN(C)c1ccc2c(NCCCCCCNc3ccnc4cc(N(C)C)ccc34)ccnc2c1 Y

---

# METHOD: NCI Yeast Anticancer Drug Screen. Data for the rad50 strain (AID 155);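 further: 0% = growth of vehicle-only cultures of the same strain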
# TEST SETTINGS: S. cerevisiae rad50 strain growth inhibition; at 5.0 µM (retest, dose inferred, filed as 0.5); active compounds read high
# Description: Growth inhibition of yeast strains with defined genetic alterations is measured as a screen for potential anti-cancer activity. Selected strains with alterations in DNA damage repair or cell cycle control were exposed to compounds and growth inhibition was measured relative to vehicle treated controls. The strain used in this assay is rad50
The panel holds about 79,000 compounds, 15% with a hit somewhere; the sample as a whole holds those more often.
ATTRIBUTE MEASURED: growth inhibition (%)
Your answer is read as %, so omit the unit and give the number.

Worked set:
O=C1CC(c2ccccc2Cl)C(c2ccccc2Cl)C1 (stereo not drawn) = -2
O=C(O)CCC(=O)NCCNC(=O)CC(=O)O = -152

Next:
Quick check: growth inhibition of COc1ccc(C2c3cc4c(cc3OC(O)C2C)OCO4)cc1 (stereo not drawn) ? -3

---

# METHOD: NCI Yeast Anticancer Drug Screen. Data for the mlh1 rad18 strain (AID 175)
# TEST SETTINGS: S. cerevisiae mlh1 rad18 strain growth inhibition; at 50.0 µM (retest, dose inferred, filed as 5.0); active compounds read high
Compounds without any hit were thinned out: in the full panel of roughly 79,000, 15% have a hit.
Below is a list of entries, each paired with its recorded growth inhibition value.
Your answer is read as %, so omit the unit and give the number.

O=C(O)CC1c2ccccc2-c2ccccc21 = 67
CCOC(=O)c1c(O)c(C)c(=O)n2c1[nH]c1cc(C)c(C)cc12 = 38
O=[N+]([O-])c1ccc(C(Cl)Cc2ccc(Cl)cc2)cc1 (centres undefined) = 71

Quick check: growth inhibition of O=C1OC(=O)C2C(c3ccccc3)=C(c3ccccc3)C(c3ccccc3)=C(c3ccccc3)C12 (centres undefined) ? 81

And then COc1ccc(NS(=O)(=O)c2ccc(N=Cc3c4ccccc4nc4cc(Cl)ccc34)cc2)nn1 , what is it? -4

And then O=c1cc(N=Nc2ccc(Cl)c(Cl)c2)[nH]c(=O)[nH]1 , what is it? 96

And then Cc1ccc(SCC#CC#CCS(=O)c2ccc(C)cc2)cc1 (centres undefined) , what is it? 98

---

Below is a list of entries, each paired with its recorded growth inhibition value.
# METHOD: NCI Yeast Anticancer Drug Screen. Data for the mlh1 rad18 strain (AID 175)
# TEST SETTINGS: S. cerevisiae mlh1 rad18 strain growth inhibition; at 50.0 µM; active compounds read high
# Protocol: Growth inhibition of yeast strains with defined genetic alterations is measured as a screen for potential anti-cancer activity. Selected strains with alterations in DNA damage repair or cell cycle control were exposed to compounds and growth inhibition was measured relative to vehicle treated controls. The strain used in this assay is mlh1 rad18
Compounds without any hit were thinned out: in the full panel of roughly 79,000, 15% have a hit.
Your answer is read as %, so omit the unit and give the number.

Worked set:
NC(=O)C1CCCN1C(=O)C1CCCN(Cc2ccc(CN3CCCC(C(=O)N4CCCC4C(N)=O)C3)cc2)C1 (stereo not given) = 78.3
Cc1ccc2c(c1)C1(SC(C)C(=O)N1c1ccc(Cl)cc1)C(=O)N2CN1CCOCC1 (stereo not given) = 29.9
N#CN1CCCC(O)c2sc3ccccc3c2CC1 (stereo not given) = -0.65
Cc1cc(=O)[nH]c(NN2C(Cl)C(=O)C2c2ccc(O)cc2)n1 (stereo not given) = 71.3

Quick check: growth inhibition of Cc1cc(O)c2c(c1)OC1(C)CCC3C(C)(C)CCCC34COC2C14 (stereo not given) ? 88.6

And then O=C(/C=C\c1cccc2ccccc12)c1ccccn1 , what is it? 99

And then C[C@H]1CC[C@@H]2[C@@H](C)[C@H]3[C@H](C[C@H]4[C@@H]5CC=C6C[C@@H](O)CC[C@]6(C)[C@H]5C[C@H](O)[C@]34C)N2C1 , what is it? 3

And then COc1cc(C)c2sc3ccccc3c(=O)c2c1NCCCN(C)C , what is it? 95.3

And then C=CCCCCCCCCC(=O)OCC=C , what is it? 9.2

And then Clc1ccc(SSc2ccc(Cl)cn2)nc1 , what is it? 81.1

And then O=C(CC1(O)C(=O)Nc2c(Cl)cccc21)c1ccc(Cl)cc1 (stereo not given) , what is it? 28.3

And then CCOC(=O)c1ccc(C(C)C)cc1 , what is it? 62.1

And then O=C1c2ccccc2SCC12OC2c1ccc(Cl)cc1 (stereo not given) , what is it? 95.1

And then CC(C)(C)c1cc(C(O)(C(F)(F)F)C(F)(F)F)c(Cl)c(C(O)(C(F)(F)F)C(F)(F)F)c1 , what is it? 99.5

And then CN(C)CCCc1ccc2oc3ccccc3c2c1 , what is it? 48

Taken from PubChem BioAssay (NCI).
